Experiment: Components of the Cytosolic LPS Sensing Pathway: Gene Identification via Genome-wide siRNA Screen
Conditions: RAW264.7 macrophages, IL-1a HTRF, actives lie on both sides, screened at 100 nM (by protocol), cells primed 5 h with Pam3CSK4 first
About 3,700 (7%) of roughly 53,000 sequences were called active. Only a selection was taken, and actives are over-represented in it overall.
Measurement Type: z-score
Lab note: record the figure alone, no unit after it.

Known z-score results, listed for orientation:
Residue String	Measurement Type	Test Value
GGAACUGGGUUCAUCCACATT against Snrpb2	z-score	-2.02
GGUGUACAACUCCUAUAGGTT against P2ry13	z-score	0.24

Let us examine a further case.
Query: Find the recorded z-score belonging to GGUAAAAUUGUCCAAGGAATT against Clec2i and report it.
Reply: -0.109

* * *

Assay: Components of the Cytosolic LPS Sensing Pathway: Gene Identification via Genome-wide siRNA Screen
Conditions: RAW264.7 macrophages, IL-1a HTRF, actives lie on both sides, screened at 100 nM (by protocol), cells primed 5 h with Pam3CSK4 first
Hit rate of the full screen: of about 53,000 sequences, about 3,700 (7%) were called active. This is one part of a sample in which actives are shown more often than they occur.
Measurement Type: z-score
Lab note: record the figure alone, no unit after it.

Known z-score results, listed for orientation:
Residue String	Test Value
GGACAUUGCCCACAUGACCTT against Rnf227	-0.15
GGAUAACCGUAUUAAUUUCTT against Gm2a	0.709
GCGGCACUUUAUCAUUAUCTT against Hint3	0.398
GGACAUACAAAUCUUCAUUTT against Mta2	0.886
GGCGAUUCUGGCUCUCUUUTT against Commd9	1.28

Query: Find the recorded z-score belonging to GGGUGACCUAAUCCAGUGUTT against Neurog3 and report it.
Reply: 2.5

Query: Now this one: GCAGGUUCAUACGAUCCAGTT against Plekha3
Reply: -0.7

Query: Now this one: CCCAUCCAAGAUUUGAUUUTT against 2310002L09Rik
Reply: 1.89

Query: Now this one: GCCCAAACUCAAGCAAGUCTT against Trpm3
Reply: 2.37

Query: Now this one: GGACUACCUAUGGUUAAAATT against Nup93
Reply: -1.58

Query: Now this one: GGCGGUUAGACAUUAUGGATT against Plac9a
Reply: 1.25

Query: Now this one: GCGAUGUGGACAGAAGUACTT against Cyba
Reply: 1.01

Query: Now this one: GGAUAUCCAAGUAAGGUGUTT against Mrpl9
Reply: -0.504

Query: Now this one: GGCUCUAACUGUGAGAAGATT against Dll3
Reply: -2.44

Query: Now this one: CCAAAACCUCAUGCUGAAATT against Zfp758
Reply: 0.396

Query: Now this one: GACGAAUAUCAUCUCACACTT against Olfr875
Reply: 0.901

Query: Now this one: GGUAGGGACCUAUCCUUGGTT against Cramp1l
Reply: -0.518

Query: Now this one: GGCUCUGUAUCGGAAGGCUTT against Zc3h7a
Reply: 0.817

Query: Now this one: GGACAUUUCUAUGUCUUUGTT against Cpt2
Reply: 3.35

Query: Now this one: GGAGAGCGAAGAAAAAAUGTT against Birc2
Reply: -0.852

Query: Now this one: GCUUUUGCUACAAGUGUAUTT against Cop1
Reply: -0.593

Query: Now this one: GCCAUGAGACACCUUCUCUTT against Olfr843
Reply: -1.96

Query: Now this one: GCGUAAUUCCAGCAGAUGUTT against Mepe
Reply: 1.74

Query: Now this one: GGUUCAGCUGACGUAAAAATT against BC048562
Reply: -2.1

* * *

Experiment: Components of the Cytosolic LPS Sensing Pathway: Gene Identification via Genome-wide siRNA Screen;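 also: robust z of the log signal after scaling to non-targeting control siRNA wells of the plate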
Settings: RAW264.7 macrophages, IL-1a HTRF, actives lie on both sides, screened at 100 nM (by protocol), cells primed 5 h with Pam3CSK4 first
Hit rate of the full screen: of about 53,000 sequences, about 3,700 (7%) were called active. The entries come from a sample that favours actives as a whole.
Lab note: compare z-score against 0.3. Equal or greater, write class 1. Smaller, write class 0.

Example cases with answers are listed next.
Residue String	Label Class
CCAUAAAUGAGUCUUCAUUTT against Bnip5	class 0
GGUUCAUUGUGUCUCUGGCTT against Grk1	class 0
GGAAAAAGCUGUGAUACUUTT against Hspbap1	class 0
GGAGAGCUCCUAUAAUCCUTT against Plau	class 0
GCUUCGCUCGCAUUCUUAUTT against Rsrc1	class 0
GGAGAAAGUGAUUGACAUATT against Lpin2	class 0
GAACUCUUCCAGUGGAAGUTT against Dctpp1	class 0
GGCCAAAGUCCACACAAGUTT against Naaa	class 1
CGUGGUGCAGAAUUUUUAUTT against Cldn14	class 1
GCUCAGAGAUUAUGGCAUCTT against Snrnp25	class 1

Query: Please tell me: is the sequence GGAUAAUGAGCUGAACAUATT against Nek7 at or over 0.3 in terms of z-score?
Reply: class 0

Query: Now this one: GGAUGUUCUCAAACUACAATT against Kdm1b
Reply: class 1

Query: Now this one: GGUAUGGAUGCUUGAGAAATT against Ccdc77
Reply: class 0

Query: Now this one: GGAAGAAACUGGAAAGAUUTT against Ankrd23
Reply: class 0

* * *

# z-score listing for each entry below
Assay: Components of the Cytosolic LPS Sensing Pathway: Gene Identification via Genome-wide siRNA Screen;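 also: robust z of the log signal after scaling to non-targeting control siRNA wells of the plate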
Conditions: RAW264.7 macrophages, IL-1a HTRF, actives lie on both sides, screened at 100 nM (by protocol), cells primed 5 h with Pam3CSK4 first
In all, about 53,000 sequences went through this assay and about 3,700 (7%) were called active. This is one part of a sample in which actives are shown more often than they occur.

Known z-score results, listed for orientation:
Residue String	z-score
GGUGAGCAAGAACAAAAAGTT against Chil6	-0.71 (inactive)
CCUCAUUCAGAGUAUAUAGTT against Vwa3a	-0.469 (inactive)

Let us examine a further case.
Query: Find the recorded z-score belonging to CCUUUUCCAUGCCUACUCCTT against Bag3 and report it.
Reply: 0.339 (inactive)

* * *

Experiment: Components of the Cytosolic LPS Sensing Pathway: Gene Identification via Genome-wide siRNA Screen;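 also: robust z of the log signal after scaling to non-targeting control siRNA wells of the plate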
Conditions: RAW264.7 macrophages, IL-1a HTRF, actives lie on both sides, screened at 100 nM (by protocol), cells primed 5 h with Pam3CSK4 first
Among all 53,000 sequences or so, about 3,700 (7%) were called active. This excerpt belongs to a sample that is enriched for actives.
Measurement Type: z-score
Lab note: record the figure alone, no unit after it.

Residue String	z-score
GGACUUUCGUCGUACUCGUTT against Terf1	-1.73
GCCCUUGAACGGAGAAUAGTT against Brk1	-1.59
GCCGGGAGAAAUAAAUGGUTT against Mif	-0.654
CCCGACCUCAACAUUUGUATT against Bmp2k	-0.265
GGUGGAUACACAGGACAAATT against Invs	1.58
CGGUGCGAUCUCUCAAAGUTT against Cryba4	2.97
GAGUUGGCUCGAAACUGCCTT against Fbxl15	3.54
GGAAGUGGACCAUUUCUUUTT against Olfr1359	0.719
CCCACUUUGAAAAAGACUCTT against Mei4	2.5
GCAGGUGGUACGCAGACUATT against Ulk1	-0.0204

Query: Find the recorded z-score belonging to CGUACUCCAACAACACUUUTT against Pdzd8 and report it.
Reply: -0.503

Query: Now this one: GGGCUGGGUCUUCAUAAUUTT against 6330549D23Rik
Reply: 1.14

Query: Now this one: GCUCAAAUGUUCUAAAAGCTT against Acmsd
Reply: -0.332

* * *

Assay: Components of the Cytosolic LPS Sensing Pathway: Gene Identification via Genome-wide siRNA Screen;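 also: robust z of the log signal after scaling to non-targeting control siRNA wells of the plate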
Conditions: RAW264.7 macrophages, IL-1a HTRF, actives lie on both sides, screened at 100 nM (by protocol), cells primed 5 h with Pam3CSK4 first
Hit rate of the full screen: of about 53,000 sequences, about 3,700 (7%) were called active. This is one part of a sample in which actives are shown more often than they occur.
The recorded z-score of each item maps onto one of these classes: lower bin = under -1, middle bin = from -1 up to 0.4, upper bin = 0.4 and over

Example cases with answers are listed next.
Residue String	Label Class
CCGAAAUAAGGCUAGCUCATT against Rfx6	middle bin
GCCAGCAACCCUCUUCGUUTT against Foxo6	middle bin
GGAUCAGGAUUUAAUGAAUTT against Zc2hc1a	lower bin

Okay, now this sequence:
Query: Which of the defined bands does the recorded z-score of GGGCUCCACUACCUAAUCATT against Gpr83 sit within?
Reply: lower bin
